TEST TARGET: rat FLAT-GST (Rattus norvegicus, UniProt P97612, DEL9-76)
Sequence (P97612 with tags, fused parts or gaps DEL9-76): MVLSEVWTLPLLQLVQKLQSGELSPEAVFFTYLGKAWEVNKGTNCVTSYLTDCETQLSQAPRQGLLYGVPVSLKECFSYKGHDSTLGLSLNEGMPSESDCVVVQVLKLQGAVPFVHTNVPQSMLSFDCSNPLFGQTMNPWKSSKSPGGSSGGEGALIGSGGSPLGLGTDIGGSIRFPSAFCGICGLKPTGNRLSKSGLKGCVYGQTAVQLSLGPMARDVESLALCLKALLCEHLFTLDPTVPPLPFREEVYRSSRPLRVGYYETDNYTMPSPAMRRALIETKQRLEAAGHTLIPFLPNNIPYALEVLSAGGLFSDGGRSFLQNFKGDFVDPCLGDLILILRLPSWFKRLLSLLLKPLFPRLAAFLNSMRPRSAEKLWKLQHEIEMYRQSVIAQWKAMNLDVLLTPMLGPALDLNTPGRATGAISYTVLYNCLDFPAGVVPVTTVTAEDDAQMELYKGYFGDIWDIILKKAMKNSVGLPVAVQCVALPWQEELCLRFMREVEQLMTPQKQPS
TEST SUMMARY: [3H]-anandamide binding to purified GST-FLAT fusion protein
ASSAY SETUP: saturation binding, 25° C., 2 h; read-out: dissociation constant, Kd, of [3H]-anandamide binding to FLAT-GST
Experimental: A pGEX-rFLAT plasmid containing fused rat FLAT and GST genes was constructed into a pGEX-4T vector (Amersham Biosciences, Piscataway, N.J.) and digested with BamH 1. […] Free from bound [^3H]-anandamide was separated on a Sephadex G-25 spin column (Amersham Biosciences) and radioactivity in the bound fraction was measured by liquid scintillation counting. Non-specific binding was determined in the presence of non-radioactive anandamide (10 μM).
READOUT KIND: Kd (µM)
One number for each entry, in µM.

Exercise: Input CCCCC/C=C\C/C=C\C/C=C\C/C=C\CCCC(=O)NCCO [anandamide] , output reported Kd.
Key: 2
